Origin of values: patent US20260242478A1

Target: T1, PSMA Fab
T1 construct: also called Anti-PSMA Fab; 006 PSMA Fab
Experiment: clonal phage ELISA; biotinylated PSMA Fab on neutravidin plate; anti-M13-HRP detection; no PSMA antigen
Where no end group is shown, it is not given here.
Reported Phage binding ELISA signal, Anti-PSMA Fab values are given for each entry in this list.
VALUE TYPE: Phage binding ELISA signal, Anti-PSMA Fab

1. VETWCIPHWMCAGF (cysteine pairing not given here; also: displayed as fusion to phage pIII) [Phage-2453]: 1.27
2. VEILCKPAWMCRLD [Phage-2457]: 1.27
3. SVKMCIPEWMCENI [Phage-2452]: 1.28
4. VMKWCTPQWMCEHL [Phage-2465]: 1.25
5. SVKLCIPDWMCVSE [Phage-2461]: 1.26
6. DTNWCRPAWMCAFA (cysteine pairing not given here; also: displayed as fusion to phage pIII) [Phage-2458]: 1.27
7. GEKWCIPSWMCVAV [Phage-2456]: 1.27
8. WDHLCKPRWMCDGI (cysteine pairing not given here; also: displayed as fusion to phage pIII) [Phage-2451]: 1.28
9. DEIWCIPRWMCDGI [Phage-2462]: 1.25
10. EMKWCTPPWMCTEL [Phage-2460]: 1.26
11. DGKWCIPEWMCAQQ (cysteine pairing not given here; also: displayed as fusion to phage pIII) [Phage-2463]: 1.25
12. TQMWCIPFWMCEVQ [Phage-2459]: 1.27
13. PVKLCKPDWMCWVS [Phage-2464]: 1.25
14. SVHECRPLWMCQGF [Phage-2455]: 1.27
